# Assayed target: HIS-TGFβR1 T204D (Homo sapiens (Human), UniProt P36897, T204D)
# Sequence (P36897 34-503 T204D): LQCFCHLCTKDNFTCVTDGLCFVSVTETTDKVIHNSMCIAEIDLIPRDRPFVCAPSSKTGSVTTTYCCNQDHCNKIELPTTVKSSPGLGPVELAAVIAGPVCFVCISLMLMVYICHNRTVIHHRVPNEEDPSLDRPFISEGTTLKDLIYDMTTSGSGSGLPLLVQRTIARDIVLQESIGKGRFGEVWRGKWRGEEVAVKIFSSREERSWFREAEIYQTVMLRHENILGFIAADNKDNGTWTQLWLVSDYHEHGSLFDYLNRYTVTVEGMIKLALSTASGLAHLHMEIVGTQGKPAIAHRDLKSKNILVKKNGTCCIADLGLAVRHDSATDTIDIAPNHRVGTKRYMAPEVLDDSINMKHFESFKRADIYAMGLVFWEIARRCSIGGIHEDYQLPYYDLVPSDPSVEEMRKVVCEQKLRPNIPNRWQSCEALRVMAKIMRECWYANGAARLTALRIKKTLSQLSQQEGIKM
# Test summary: HTRF probe-displacement assay, TGFβR1
# Assay type: binding
# Condition notes: GST tagged wild type protein used instead of HIS-tagged protein (starred values)
# Procedure: Em: 520 nm/495 nm). […] Compounds were dissolved at 10 mM in dimethylsulfoxide (DMSO) and evaluated at eleven concentrations. IC50 values were derived by non-linear regression analysis.
Measured parameter: pIC50
One number for each entry, as −log10 of the molar value.

// worked examples, pIC50 included
Cc1ccc(F)c(-c2nc(-n3ccc4cnccc43)c3cccn3n2)n1 [Example 4] | 7.74
Cc1cccc(-c2nc(Nc3ccnc4ccc(C(F)(F)F)cc34)c3cccn3n2)n1 [Example 16] | 6.03
CS(=O)(=O)Nc1cccc(-c2nc(-n3ccc4cnccc43)c3cccn3n2)n1 [Example 25] | 7.48

From here, focus on the item given below.
response.value for Cc1cccc(-c2nc(Nc3ccnc4ccc(Br)cc34)c3cccn3n2)n1 [Example 12] (field: pIC50) = 6.55

Values were extracted from patent US10292985B2.
